assay metric: melting point

| smiles representation | melting point |
| --- | --- |
| CC1(C)N=C(c2cnn3cc(Cl)ccc23)c2ccccc2C1(F)F | 113 to 118 °C |

May I ask what melting point has been recorded for `Cc1ccn2c(C3=NC(C)(C)C(F)(F)c4ccccc43)cnc2c1C` ? 159 to 161 °C

Repeat with `Cc1ccn2c(C3=NC(C)(C)C(C)(C)c4c(F)cccc43)cnc2c1C` 185 to 186 °C

Repeat with `Cc1ccc2c(C3=NC(C)(C)C(F)(F)c4ccccc43)cnn2c1` 105 to 107 °C

Repeat with `Cc1c(Br)ccc2c(C3=NC(C)(C)C(F)(F)c4ccccc43)cnn12` 180 to 182 °C

Repeat with `Cc1c(Cl)ccc2c(C3=NC(C)(C)C(F)(F)c4ccccc43)cnn12` 166 to 168 °C

Repeat with `Cc1cccc2c(C3=NC(C)(C)C(C)(C)c4c(F)cccc43)cnn12` 134 to 136 °C

Repeat with `CC1(C)N=C(c2cnn3cc(Br)ccc23)c2ccccc2C1(F)F` 127 to 129 °C

Repeat with `Cc1ccc2c(C3=NC(C)(C)C(C)(C)c4c(F)cccc43)cnn2c1C` 175 to 176 °C

Repeat with `Cc1ccc2c(C3=NC(C)(C)C(F)(F)c4ccccc43)cnn2c1C` 160 to 161 °C

Repeat with `Cc1cccn2c(C3=NC(C)(C)C(C)(C)c4c(F)cccc43)cnc12` 160 to 161 °C

The values you see were collected from patent US11124508B2.
